assay: soluble on expression in E. coli; label from the status in PepcDB or PDB records
OBSERVABLE: soluble on expression in E. coli

1) MGSDKIHHHHHHMRYVILARNLDSKAGGISVYGRNLIKKLEAKGIDVIISPKEKFSYFKWLLFDVPIFILKTDADVYHAIGIIEGILLPFIKPRAKKYLTVHDLIPLKYKGRGFRKILERFLVRLGLFSARFYDKIFAVSHLTKLDVIRFGGIDENKIEVVYQPIDDKFLKTPTSGKRHKTFNIGYISRMEAYKRHELLIKLFMKYKNPNARLYLAGTGPLFKKIQKLAEEDKRIILLGFVPDDKIVEFYDMLDVYIHPSKYEGWGLPIVEATARKKPVIIFEDAEIPREVKYLCLSIDFNIINPLISNLKYLKKVGVIKNKAWRRIYENSICH = not soluble
2) MAFHHGRRCRITPLPETESLQESKKMNINELGARIDRPTIRELIAYATCRNRPISNSTLLRMEKDGRIPCRLKTPLTSPVWDTREVLEALGLQQ = not soluble

----------
test: soluble on expression in E. coli; label from the status in PepcDB or PDB records
OBSERVABLE: soluble on expression in E. coli

1) MARNRLTESEMNEALRALDGWQKVDGREAITRSFKFKDFSTAFGFMAQAALYAEKLDHHPEWFNAYNRVDVTLATHSENGVTELDIKMARKMNAIAG = soluble
2) VRPLNCIVAVSQNMGIGKNGDLPWPPLRNEFKYFQRMTTTSSVEGKQNLVIMGRKTWFSIPEKNRPLKDRINIVLSRELKEPPRGAHFLAKSLDDALRLIEQPELASKVDMVWIVGGSSVYQEAMNQPGHLRLFVTRIMQEFESDTFFPEIDLGKYKLLPEYPGVLSEVQEEKGIKYKFEVYEKKD = soluble
3) HKGTLYVVATPLGNLDDMTFRAVNTLRNAGAIACEDTRRTSILLKHFGIEGKRLVSYHSFNEERAVRQVIELLEEGSDVALVTDAGTPAISDPGYTMASAAHAAGLPVV = not soluble
4) GMADAPIDIFQSILSRKSIRAFTDQPVTQETIREILKLAARAPSGTNLQPWQVIVLTGKILQKVGQELSQLVLSGIKGEREYHYYPRQWREPYLSRRRKVGLDLYKSLGIQKGDQEKMLHQKAKNFLFYGAPVGLLFTIDHDMEMGSWLDLGMFMQTIMLAARGFGLDTCAQAAFADYHKQIRSLLSVPSDRHIICGMALGYRDMNAPENNFETEREPIDNFVHFIKSYP = soluble
5) MQVLWSNPIELGMTGGDVRMVKGPSDALRCLADHWPYRGPYYVAARSACRAAIDGRRTCEEARRLFLSAAEEARLKAH = not soluble
6) YLSKYRNETGRSPSFLVNIDSSLKSLAHVDVIYPVGDPIFIHIYERGKERRYKPIEPLLKDDEFEFMDAILDIIMSRASDYPPAENEEEQEKNIEDVYKKTVS = soluble

Exercise: Report soluble on expression in E. coli for MGHHHHHHSHNTTKPKSLAVKKAKWHLGIRSQSKPYDIMAEVYRAMKQLDFEWKVVNAYHLRVRRKNPVTGNYVKMSLQLYLVDNRSYLLDFKSIDDEVVEQRSGS
Solution: not soluble

Exercise: Could you please provide reported soluble on expression in E. coli for MAEPLFDMSATGRPRILILGGTTEARQLAERLVSEPHYDTAISLAGRTADPRPQPLPTRTGGFGGAEGLAVFLRERNIALLIDATHPFAARISLNAAAAAKMTGTPLLALRRPAWAAEPGDRWTCVGSVAEAVPALGEAPRRVFLAIGRQEAFHFERAPQHSYVVRSVDPVMPPLDLPDVTAILASGPFAQADETELLERHGIDVIVAKNSGGAATYGKIAAARQLGIEVVMVERHKPADVQSVGDCDEALERIRQWLSPVKDRGV ? Thanks!
Solution: not soluble

Exercise: Give a short answer stating reported soluble on expression in E. coli for QSNAIWGLDRIDQRNLPLDRNYNANFDGFGVTAYVIDTGVNNNHEEFGGRSVSGYDFVDNDADSSDCNGHGTHVAGTIGGSQYGVAKNVNIVGVRVLSCSGSGTTSGVISGVDWVAQNASGPSVANMSLGGGQSTALDSAVQGAIQSGVSFMLAAGNSNADACNTSPARVPSGVTVGSTTSSDSRSSFSNWGSCVDLFAPGSQIKSAWYDGGYKTISGTSMATPHVAGVAALYLQENNGLTPLQLTGLLNSRASENKVSDTRGTTNKLLYSLADSGCEPDCGGP .
Solution: soluble

----------
test: soluble on expression in E. coli; label from the status in PepcDB or PDB records
OBSERVABLE: soluble on expression in E. coli

Known results for sequences:
1. MGHHHHHHSHKKHNQGKEAAQRVLSQIDVAQKKLQDVSMKFRLFQKPANFEQRLQESKMILDEVKMHLPALETKSVEQEVVQSQLNHCVNLYKSLSEVKSEVEMVIKTGRQIVQKKQTENPKELDERVTALKLHYNELGAKVTERKQQLEKCLKLSRKMRKEMNVLTEWLAATDMELTKRSAVEGMPSNLDSEVAWGKATQKEIEKQKVHLKSITEVGEALKTVLGKKETLVEDKLSLLNSNWIAVTSRAEEWLNLLLEYQKHMETFDQNVDHITKWIIQADTLLDESEKKK = soluble
2. MSFQEIPIIDLQEAFDPATRSKFLEEVRDAIINVGFLLLKNYESLGPTEEDLQSIKQQAIEFFALPAKEKLQCEMLNSPHFLGYTRLANEITASHTDWREQIDLATELPAPKEGEPLYKNIEGPNLWPNPEVIPKFRPTIERFIEKMTALSNVFKDLVAESIGVDPKALNRYFKENQQCKMKLIAYPDVSELDGTKSAALDDTPETNQGVEPHRDSDLITYIYQATEHQNSLQVQNFQGHWITVPNIPGHLVVNNGQTLQAITGGVAKATIHRVLVPEKGTGTRISIPFFQTIDLDSSKGVVDNLPQEVIDLKNERDKKIKDWGVDTGFQFEPDVSKEPIGHAVFRNRIKSHQDVAKKWYPDVLKSVLQEYTH = soluble
3. SLANIREIAKRAGISIATVSRHLNNTGYVSEDAREKIQKVVDELNYTPNALARAMFTKNSKTIGLMVPNISNPFFNQMASVIEEYAKNKGYTLFLCNTDDDKEKEKTYLEVLQSHRVAGIIASRSQCEDEYANIDIPVVAFENHILDNIITISSDNYNGGRMAFDHLYEKGCRKILHIKGPEVFEATELRYKGFLDGARAKDLEIDFIEFQHDFQVKMLEEDINSMKDIVNYDGIFVFNDIAAATVMRALKKRGVSIPQEVQIIGFDNSFIGELLYPSLTTINQPIEALAYTIIELLIKIINGEGVLIEDYIMEVKLIERETTISLKDEG = soluble
4. DSTITGASEKAEDAFKASYPAVYRYLEGYKDLLTKRNQAETGIRYEWYALQRWGANYWEDFSKPKIMWKRIGSILRFCYNENGALGLDSTCFAAGKG = not soluble
5. MITDLILHNHPRMKTITLNDNHIAHLNAKNTTKLEYLNLSNNNLLPTNDIDQLISSKHLWHVLVNGINNDPLAQMQYWTAVRNIIDDTNEVTIDLSGLNLTTQPPGLQNFTSINLDNNQFTHFDATNYDRLVKLSLNSNALESINFPQGRNVSITHISMNNNALRNIDIDRLSSVTYFSAAHNQLEFVQLESCEWLQYLNLSHNQLTDIVAGNKNELLLLDLSHNKLTSLHNDLFPNLNTLLINNNLLSEIKIFYSNFCNVQTLNAANNQLKYINLDFLTYLPSIKSLRLDNNKITHIDTNNTSDIGTLFPIIKQSKTLEHHHHHH = not soluble

Shifting focus to the sequence that follows.
Exercise: Provide one value: measured soluble on expression in E. coli of MSLKVHLNYETGPEHWADLQSRLAPGIRLSSGECRPANGFDILVSGEPTLEELEGNGRLRAVIVPWVGVPLATLDRMKEFPSIALHNLPYNIGPTAEMAVALLLAAAKRIVPYDQRLRRGYWSGEHTGVPGSVMLDGGLAVILGYGRIGRRVAAACRGLGMRIAGVRRNPGTSDEEYALADLSGLLPQAAALIVCLPHTHQTDRLIGSRELERLPSNAVLVNVARGGIVNEEALYRTLQARRIYAAGIDVWYRYPSATERKQGLPHPPSSFPFHTLDNVVMSPHRAGWSEEKEPARIAELANMLNAAARGEGHHHHHH
Solution: not soluble

----------
assay: soluble on expression in E. coli; label from the status in PepcDB or PDB records
OBSERVABLE: soluble on expression in E. coli

1) GMTYELSTDREFDLIAIGRACIDLNAVEYNRPMEETMTFSKYVGGSPANIVIGSSKLGLKAGFIGKIADDQHGRFIESYMRGVGVDTSNLVVDQEGHKTGLAFTEIKSPEECSILMYRQDVADLYLSPEEVNEAYIRRSKLLLVSGTALSKSPSREAVLKAIRLAKRNDVKVVFELDYRPYSWETPEETAVYYSLVAEQSDIVIGTREEFDVLENRTEKGDNDETIRYLFKHSPELIVIKHGVEGSFAYTKAGEAYRGYAYKTKVLKTFGAGDSYASAFLYALISGKGIETALKYGSASASIVVSKHSSSDAMPSVEEIEALIEKDETITIA = soluble
2) GSRVALVTGANRGIGLAIARELCRQFSGDVVLTARDVARGQAAVQQLQAEGLSPRFHQLDIDDLQSIRALRDFLRKEYGGLNVLVNNAAVAFKSDDPMPFDIKAEMTLKTNFFATRNMCNELLPIMKPHGRVVNISSLQCLRAFENCSEDLQERFHSETLTEGDLVDLMKKFVEDTKNEVHEREGWPNSPYGVSKLGVTVLSRILARRLDEKRKADRILVNACCPGPVKTDMDGKDSIRTVEEGAETPVYLALLPPDATEPQGQLVHDKVVQNW = soluble
